Here the recorded growth is given for each entry.
- Tested on: HOP-62 NSCLC
- Method: NCI-60 one-dose screen, 48 h (100 = growth as untreated, 0 = no growth, -100 = all killed)
- Assay Setup: 10 µM unless noted
About 83,000 compounds went through this panel and 20% of them were active in at least one assay; those are over-represented in the sample as a whole.
Measured Quantity: growth (%)

[
  {
    "Compound": "CN(C)CCCOc1ccc2c(c1)CN(C(=O)c1cc(C(=O)N3Cc4cccc(F)c4C3)ccc1O)C2",
    "Target Desc": "HOP-62 NSCLC",
    "Numeric Readout": 120
  },
  {
    "Compound": "NS(=O)(=O)c1ccc(Nc2nc(N/N=C/CCc3ccccc3)nc(Nc3ccccc3)n2)cc1",
    "Target Desc": "HOP-62 NSCLC",
    "Numeric Readout": 108
  },
  {
    "Compound": "O=C(Nc1cccc(C(F)(F)F)c1)c1cc(-c2ccc(F)cc2F)ccc1O",
    "Target Desc": "HOP-62 NSCLC",
    "Numeric Readout": 12.8
  },
  {
    "Compound": "CCNC(=O)N1CCc2cc(OC)c(OCCc3ccc(OC)cc3)cc2C1c1ccc(OC)cc1C (stereo unspecified)",
    "Target Desc": "HOP-62 NSCLC",
    "Numeric Readout": 20.3
  },
  {
    "Compound": "CC(=O)N1C(=S)NC(=O)C1CC(C)C (stereo unspecified)",
    "Target Desc": "HOP-62 NSCLC",
    "Numeric Readout": 99.8
  },
  {
    "Compound": "O=C(O)c1cn(C2CC2)c2cc(N3CCN(C(=O)CN4C(=O)CSC4=O)CC3)c(F)cc2c1=O",
    "Target Desc": "HOP-62 NSCLC",
    "Numeric Readout": 75.8
  },
  {
    "Compound": "O=C(c1ccc(O)c(C(=O)N2Cc3ccc(OCCC[P+](c4ccccc4)(c4ccccc4)c4ccccc4)cc3C2)c1)N1Cc2cccc(F)c2C1",
    "Target Desc": "HOP-62 NSCLC",
    "Numeric Readout": 102
  },
  {
    "Compound": "C#CCC#CCN1CCC[C@H]1C(=O)NCC(=O)OC",
    "Target Desc": "HOP-62 NSCLC",
    "Numeric Readout": 104
  },
  {
    "Compound": "CCN(CC)c1ccc2c(c1)Oc1nc(N)c(C#N)c(N)c1C2Sc1ccc(F)cc1 (stereo unspecified)",
    "Target Desc": "HOP-62 NSCLC",
    "Numeric Readout": -15
  },
  {
    "Compound": "Cc1nn(-c2ccccc2)c2ncnc(N/N=C/c3cccc(O)c3)c12",
    "Target Desc": "HOP-62 NSCLC",
    "Numeric Readout": 44.3
  },
  {
    "Compound": "N#Cc1c(Nc2ccccc2)nn2c(-c3ccc([N+](=O)[O-])cc3)ccnc12",
    "Target Desc": "HOP-62 NSCLC",
    "Numeric Readout": 109
  }
]
